test system: DU-145; experiment: NCI tumour cell line growth inhibition, 48 h
The source made the active and inactive calls. Cut-off read from the data, not from the text of the source: active = GI50 up to about 1.1 µM and inactive = higher.
QUANTITY KIND: GI50

Guide cases for GI50, answers given:
>  <COMPOUND>
N#CC1=C(N)OC2=C(CCCc3ccc([N+](=O)[O-])cc32)C1c1ccc(Cl)cc1 (centres undefined)

>  <GI50>
8.51 µM (inactive)

$$$$
>  <COMPOUND>
Cc1cc2c(cc1C)[n+]([O-])c(C(=O)N1CCN(c3ccc([N+](=O)[O-])cc3)CC1)c(C)[n+]2[O-]

>  <GI50>
29.5 µM (inactive)

$$$$
>  <COMPOUND>
COC(=O)C(CCCCNC(=O)CNC(=O)OCc1ccccc1)NC(=O)C(CCCCNC(=O)CNC(=O)OCc1ccccc1)NC(=O)OCc1ccccc1 (centres undefined)

>  <GI50>
98.4 µM (inactive)

$$$$

Now consider the entry below.
Qu. Can you look up GI50 on DU-145 for "Cc1cccc(/C=N/NC(=S)NC2CCCCC2)n1" ?
Ans. 29.6 µM (inactive)

====

test system: A549; test: NCI tumour cell line growth inhibition, 48 h
Calls of active or inactive are those of the source. No stated cut-off is given here; in the data, active = GI50 up to about 1.1 µM and inactive = higher.
The categories you may choose from are YES = active, NO = inactive

// known answers, use as guide
>  <COMPOUND>
CCCCCCCCCCCCC(O)[C@H]1CC[C@H](C(O)CCCCCC(=O)CCCCC2CC(C(C)=O)C(=O)O2)O1 (stereo partly specified)

>  <LABEL CLASS>
NO

$$$$
>  <COMPOUND>
Nc1ncn(C/C=C/c2ccccc2)c2ncnc1-2

>  <LABEL CLASS>
NO

$$$$
>  <COMPOUND>
Cc1nc2c(O)nc3ccccc3c2o1

>  <LABEL CLASS>
NO

$$$$
>  <COMPOUND>
N=C(N)SCCN1CCCCC1

>  <LABEL CLASS>
NO

$$$$
>  <COMPOUND>
CCCCCCCCCCCCC(=O)NCC(=O)NC(Cc1ccccc1)C(=O)Oc1ccc([N+](=O)[O-])cc1 (stereo unspecified)

>  <LABEL CLASS>
NO

$$$$
>  <COMPOUND>
CC(=O)CC12NC(=O)N(C)N=C1N(C)C(=O)N(C)C2=O (stereo unspecified)

>  <LABEL CLASS>
NO

$$$$
>  <COMPOUND>
CCOC(=O)[C@@H]1[C@@H](c2ccccc2)N(C)O[C@@]1(c1ccccc1)C(F)(F)F

>  <LABEL CLASS>
NO

$$$$
>  <COMPOUND>
COc1ccc(C2C(Cl)C(=O)N2NC(=O)c2ccc(NC(C)=O)cc2)cc1OC (stereo unspecified)

>  <LABEL CLASS>
NO

$$$$
>  <COMPOUND>
Cc1ccc(/C=C/C(=O)c2cc(CN(C)C)c(O)c(CN(C)C)c2)cc1

>  <LABEL CLASS>
NO

$$$$
>  <COMPOUND>
O=C1CC[C@@]2(O)[C@H]3Cc4ccc(-c5cccc(O)c5)c5c4[C@@]2(CCN3CC2CC2)[C@H]1O5

>  <LABEL CLASS>
NO

$$$$

Qu. In this assay, the call recorded for "CCOC(=O)NN(C(=O)OCC)c1c(C)cc(C)cc1C" was what?
Ans. NO

Qu. In this assay, the call recorded for "COC1=CC(=O)c2c(cc(COP(=O)(N(C)CCBr)N(C)CCBr)n2C)C1=O" was what?
Ans. YES

Qu. In this assay, the call recorded for COC(=O)C(CCCCNC(=O)CNC(=O)OCc1ccccc1)NC(=O)C(CCCCNC(=O)CNC(=O)OCc1ccccc1)NC(=O)OCc1ccccc1 (stereo unspecified) was what?
Ans. NO

Qu. In this assay, the call recorded for "COc1cc2c(cc1OC)c1c(OC)c(OC)cc3c1c1c2sc(=S)n1CC3" was what?
Ans. NO

Qu. In this assay, the call recorded for "COc1cc2cc(C(=O)N3C[C@@H](CCl)c4c3cc(N)c3ccccc43)[nH]c2c(OC)c1OC" was what?
Ans. YES

Qu. In this assay, the call recorded for "O=S(=O)(O)c1ccc2c(/N=N/c3ccccc3Cl)c(O)ccc2c1" was what?
Ans. NO

Qu. In this assay, the call recorded for "CN(CCCN=C=S)CCCN1c2ccccc2CCc2ccccc21" was what?
Ans. NO

Qu. In this assay, the call recorded for CC(C)(C1=NC(C(C)(C)C)CO1)C1=N[C@@H](C(C)(C)C)CO1 (stereo partly specified) was what?
Ans. NO

====

tested on: HL-60; assay: NCI tumour cell line growth inhibition, 48 h
Calls of active or inactive are those of the source. No stated cut-off is given here; in the data, active = GI50 up to about 1.1 µM and inactive = higher.
QUANTITY KIND: GI50

>  <COMPOUND>
COC(=O)c1ccc(/C=N/c2cc(C)nn2-c2ccccc2)cc1

>  <DATA VALUE>
20.1 µM (inactive)

$$$$
>  <COMPOUND>
CC1(C)CCSC(/C=C/c2ccccc2)=N1

>  <DATA VALUE>
33.1 µM (inactive)

$$$$
>  <COMPOUND>
CC(=O)OCC1OC(NC(=S)Nn2c(=O)[nH]c3ccccc3c2=O)C(OC(C)=O)C(OC(C)=O)C1OC(C)=O (stereo not given)

>  <DATA VALUE>
57.4 µM (inactive)

$$$$
>  <COMPOUND>
COc1ccc(C#CCC(OC2OC(CO)C(O)C(O)C2O)C(O)c2ccc(OC)c(OC)c2)cc1OC (stereo not given)

>  <DATA VALUE>
61.1 µM (inactive)

$$$$

Qu. GI50 for COc1ccc(C2C(Cl)C(=O)N2n2cnc3ccccc3c2=O)cc1OC (stereo not given) ?
Ans. 57.7 µM (inactive)

====

Answer each item with its documented GI50.
tested on: UACC-257; assay: NCI tumour cell line growth inhibition, 48 h
Active and inactive are the calls of the source. Cut-off read from the data, not from the text of the source: active = GI50 up to about 1.1 µM and inactive = higher.

Guide cases for GI50, answers given:
>  <MOLECULE>
CCc1cc(Cc2cc(CC)c(NC(=O)C(=O)CC(=O)c3sc(-c4cccnc4)nc3C)c(CC)c2)cc(CC)c1NC(=O)C(=O)CC(=O)c1sc(-c2cccnc2)nc1C

>  <GI50>
> 100 µM (inactive)

$$$$
>  <MOLECULE>
O=C(O[C@H]1CCN2C[C@H]3C[C@H](CN4C(=O)CCC[C@H]34)[C@@H]2C1)c1ccc(O)cc1

>  <GI50>
> 100 µM (inactive)

$$$$

Provide each entry's GI50 from the list below.
1. CC1=C(C)CC2C(=O)N(c3cc(C(C)(C)C)ccc3C(C)(C)C)C(=O)C2C1 (centres undefined)
2. C(=C\C(SCc1ccccc1)SCc1ccccc1)/c1ccccc1
3. O=c1oc2ccc([N+](=O)[O-])cc2cc1-c1csc(-c2ccccc2)n1

Ans.
1: > 100 µM (inactive); 2: > 10 µM (inactive); 3: > 100 µM (inactive)

Provide each entry's GI50 from the list below.
1. O=C(CC(O)c1cccnc1)CC(O)c1cccnc1 (centres undefined)
2. CC(C)(C)c1cc(Cc2ccc(S(C)(=O)=O)cc2)c(O)c(C(C)(C)C)c1
3. C=CCOc1ccc(C2c3c(n[nH]c3O)CC(C)(O)C2C(=O)OC)cc1OC (centres undefined)
4. CN(C)Cc1cc(/N=N/c2ccccc2Cl)cc(CN(C)C)c1O
5. O=c1c(-c2ccc(O)cc2)coc2cc(OC3OC(CO)C(O)C(O)C3O)cc(O)c12 (centres undefined)

Ans.
["18.1 µM (inactive)", "17 µM (inactive)", "> 100 µM (inactive)", "20.1 µM (inactive)", "> 100 µM (inactive)"]

====

Answer each item with its documented GI50.
tested on: SR; experiment: NCI tumour cell line growth inhibition, 48 h
Calls of active or inactive are those of the source. No stated cut-off is given here; in the data, active = GI50 up to about 1.1 µM and inactive = higher.

>  <COMPOUND>
O=c1n(Cc2ccccc2)c2ccccc2n1CC1CS1 (stereo unspecified)

>  <GI50>
> 100 µM (inactive)

$$$$
>  <COMPOUND>
O=C(O/C(=C(/N=N/c1ccccc1)c1ccccc1)c1ccccc1)c1ccccc1

>  <GI50>
> 100 µM (inactive)

$$$$
>  <COMPOUND>
CC(C)(C)c1ccc(O)c(CN(Cc2c(O)ccc3ccccc23)C2CCCCC2)c1

>  <GI50>
16 µM (inactive)

$$$$

Provide each entry's GI50 from the list below.
1. COc1ccc(-n2nnc(C(N)=O)c2O)cc1
2. [N-]=[N+]=Nc1nc2ccccc2c(N=[N+]=[N-])c1Cl
3. C=C(C)C(=O)OC1CC2=CC(CC3(C)OC3C3OC(=O)C(=C)C13)OC2=O (stereo unspecified)
4. O=C1NCCCC12CCCNC2=O
5. Cc1nc(N)sc1C(=O)Nc1nc[nH]n1
6. Cc1cc2c(cc1C)[n+]([O-])c(C(=O)N1CCN(c3ccc([N+](=O)[O-])cc3)CC1)c(C)[n+]2[O-]
7. CN(C)c1ccc(C=C2C(=O)OC(C)(C)OC2=O)cc1Br

Ans.
1. > 100 µM (inactive)
2. > 100 µM (inactive)
3. 2.51 µM (inactive)
4. > 100 µM (inactive)
5. 14.1 µM (inactive)
6. > 100 µM (inactive)
7. 59.6 µM (inactive)

Qu. GI50 for "Cc1cc(N(CCC#N)CCC#N)ccc1/C=C1N=C(/C=C\c2ccccc2)N(c2ccc(C(=O)O)cc2)C\1=O" ?
Ans. > 100 µM (inactive)
